Assign pIC50 to each entry below.
- ASSAY DETAILS: Cell-based activity under Prompt Conditions: Cell-based activity under Prompt Conditions. Rat or human NHE3-mediated Na+-dependent H+ antiport was measured using a modification of the pH sensitive dye method originally reported by Paradiso (PNAS USA. 81:7436-7440, 1984). Opossum kidney (OK) cells were obtained from the ATCC and propagated per their instructions. The rat NHE3 gene (GenBank M85300) or the human NHE3 gene (GenBank NM_004174.1) was introduced into OK cells via electroporation, and cells were seeded into 96 well plates and grown overnight. Medium was aspirated from the wells, cells were washed twice with NaCl-HEPES buffer (100 mM NaCl, 50 mM HEPES, 10 mM glucose, 5 mM KCl, 2 mM CaCl2, 1 mM MgCl2, pH 7.4), then incubated for 30 min at room temperature with NH4Cl-HEPES buffer (20 mM NH4Cl, 80 mM NaCl, 50 mM HEPES, 5 mM KCl, 2 mM CaCl2, 1 mM MgCl2, pH 7.4) containing 5 μM bis(acetoxymethyl) 3,3′-(3′,6′-bis(acetoxymethoxy)-5-((acetoxymethoxy)carbonyl)-3-oxo-3H-spiro[isobenzofuran-1,9′-xanthene]-2′,7′-diyl)dipropanoate (BCECF-AM).Cells were washed twice with Ammonium free, Na+-free HEPES (100 mM choline, 50 mM HEPES, 10 mM glucose, 5 mM KCl, 2 mM CaCl2, 1 mM MgCl2, pH 7.4) and incubated in the same buffer for 10 minutes at room temperature to lower intracellular pH. […] Initial rates were plotted as the average 2 or more replicates, and pIC50 values were estimated using GraphPad Prism.
Note on pIC50: it is the negative log10 of concentration, concentration in mol/L.

Bench note: what pIC50 did CN1Cc2c(Cl)cc(Cl)cc2[C@H](c2cccc(S(=O)(=O)NCCOCCOCCNC(=O)NCCC(CCNC(=O)NCCOCCOCCNS(=O)(=O)c3cccc([C@@H]4CN(C)Cc5c(Cl)cc(Cl)cc54)c3)(CCNC(=O)NCCOCCOCCNS(=O)(=O)c3cccc([C@@H]4CN(C)Cc5c(Cl)cc(Cl)cc54)c3)NC(=O)COCC(=O)O)c2)C1 show?
8.20

Same for C/C(=C\c1cc(F)c(Oc2ccc(S(=O)(=O)NCCOCCOCCOCCNC(=O)COCC(=O)NCCOCCOCCOCCNS(=O)(=O)c3ccc(Oc4c(F)cc(/C=C(\C)C(=O)N=C(N)N)cc4F)cc3)cc2)c(F)c1)C(=O)N=C(N)N
7.30

Same for CN1Cc2c(Cl)cc(Cl)cc2[C@H](c2cccc(S(=O)(=O)NCCOCCOCCOCCN)c2)C1
7.34

Same for CN(CCN(CC(=O)O)CC(=O)NCCOCCOCCNC(=O)NCCOCCOCCOCCOc1ccc(-c2nc(NC(=N)N)nc3ccc(Cl)cc23)cc1)CC(=O)O
8.00

Same for CN1Cc2c(Cl)cc(Cl)cc2[C@H](c2cccc(S(=O)(=O)NCCOCCOCCNC(=O)CCC(CCC(=O)NCCOCCOCCNS(=O)(=O)c3cccc([C@@H]4CN(C)Cc5c(Cl)cc(Cl)cc54)c3)(CCC(=O)NCCOCCOCCNS(=O)(=O)c3cccc([C@@H]4CN(C)Cc5c(Cl)cc(Cl)cc54)c3)NS(C)(=O)=O)c2)C1
6.20

Same for CN1Cc2c(Cl)cc(Cl)cc2[C@H](c2cccc(S(=O)(=O)NCCOCCOCCNC(=O)Nc3ccc(NC(=O)NCCOCCOCCNS(=O)(=O)c4cccc([C@@H]5CN(C)Cc6c(Cl)cc(Cl)cc65)c4)cc3)c2)C1
8.60

FYI, the data here is from ChEMBL document CHEMBL5726876.
